Target: c-Met protein receptors on HUVEC (human, UniProt P08581 25-1390)
Sequence (P08581 25-1390): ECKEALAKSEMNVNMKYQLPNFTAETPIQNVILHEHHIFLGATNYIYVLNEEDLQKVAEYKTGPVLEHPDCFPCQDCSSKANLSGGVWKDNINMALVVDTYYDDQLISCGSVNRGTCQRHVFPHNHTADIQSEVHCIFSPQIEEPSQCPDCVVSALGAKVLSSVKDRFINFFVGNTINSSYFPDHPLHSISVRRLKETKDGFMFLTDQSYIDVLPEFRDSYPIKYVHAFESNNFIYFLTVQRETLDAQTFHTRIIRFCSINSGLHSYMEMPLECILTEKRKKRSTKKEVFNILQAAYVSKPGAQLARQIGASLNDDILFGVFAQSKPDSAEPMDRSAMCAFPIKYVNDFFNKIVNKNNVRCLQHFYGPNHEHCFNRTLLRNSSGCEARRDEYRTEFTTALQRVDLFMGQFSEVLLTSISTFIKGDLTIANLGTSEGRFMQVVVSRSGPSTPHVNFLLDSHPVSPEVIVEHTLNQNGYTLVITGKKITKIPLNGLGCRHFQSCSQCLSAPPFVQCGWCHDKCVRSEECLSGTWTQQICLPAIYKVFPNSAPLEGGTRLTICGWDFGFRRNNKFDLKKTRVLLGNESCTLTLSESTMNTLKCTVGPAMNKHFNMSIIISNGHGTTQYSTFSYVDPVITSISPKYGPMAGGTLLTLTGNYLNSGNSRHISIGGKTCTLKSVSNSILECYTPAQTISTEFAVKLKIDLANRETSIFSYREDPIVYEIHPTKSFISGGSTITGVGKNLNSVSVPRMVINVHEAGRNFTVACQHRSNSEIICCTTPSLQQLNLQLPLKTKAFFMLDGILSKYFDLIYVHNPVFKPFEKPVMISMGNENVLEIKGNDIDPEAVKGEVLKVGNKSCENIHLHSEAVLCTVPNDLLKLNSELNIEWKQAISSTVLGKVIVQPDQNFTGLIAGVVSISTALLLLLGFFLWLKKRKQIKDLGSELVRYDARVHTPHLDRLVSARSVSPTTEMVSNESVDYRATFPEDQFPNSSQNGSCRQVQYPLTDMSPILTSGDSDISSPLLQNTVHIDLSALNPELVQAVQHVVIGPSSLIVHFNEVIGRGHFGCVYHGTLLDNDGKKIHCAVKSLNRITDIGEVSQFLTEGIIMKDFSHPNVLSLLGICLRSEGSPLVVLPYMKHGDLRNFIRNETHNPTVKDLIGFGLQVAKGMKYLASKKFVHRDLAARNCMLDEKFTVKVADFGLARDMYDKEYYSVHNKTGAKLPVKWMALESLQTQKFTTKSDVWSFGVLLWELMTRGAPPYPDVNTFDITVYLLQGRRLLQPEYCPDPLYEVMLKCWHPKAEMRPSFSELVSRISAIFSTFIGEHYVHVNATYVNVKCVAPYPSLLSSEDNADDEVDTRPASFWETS
Assay: cell-based or functional assay
EXPERIMENTAL ENDPOINT: Index 2 (Relative Migration relative to VH0/Vk0), HUVEC migration assay
Give only the figure.

Would you please look over these solved cases?
| BINDER | NUMERIC RESULT |
| --- | --- |
| VH0/Vk2 (antibody, IgG1, V domains shown, Full IgG1/kappa expressed in HEK 293 EBNA cells) VH: QVQLVQSGAEVKKPGESLRISCQGSGYSFPTHWITWVRQMPGKGLEWMGTIDPTDSYNFYGPSFQGHVTISADSSSSTAYLQWSSLKASDTAMYYCARDGNYYDSRGYYYDTFDMWGQGTLVTVSS VL: DIQMTQSPSSLSASVGDRVTITCRASQGISTYLAWYQQKPGKAPKLLIYSASTLESGVPSRFSGSGSGTDFTLTISSLQPEDFATYYCQQADSFPLTFGGGTKVEIK | 1.09 |
| VH2/Vk2 (antibody, IgG1, V domains shown, Full IgG1/kappa expressed in HEK 293 EBNA cells) VH: EVQLVQSGAEVKKPGESLKISCKGSGYSFPTHWITWVRQMPGKGLEWMGTIDPTDSYNFYGPSFQGQVTISADKSISTAYLQWSSLKASDTAMYYCARDGNYYDSRGYYYDTFDMWGQGTLVTVSS VL: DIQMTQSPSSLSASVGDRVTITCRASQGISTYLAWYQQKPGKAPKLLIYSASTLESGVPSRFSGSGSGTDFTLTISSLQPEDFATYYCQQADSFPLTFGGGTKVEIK | 1.18 |
| VH4/Vk2 (antibody, IgG1, V domains shown, Full IgG1/kappa expressed in HEK 293 EBNA cells) VH: QVQLVQSGAEVKKPGSSVKVSCQGSGYSFPTHWITWVRQAPGQGLEWMGTIDPTDSYNFYGPSFQGRVTITADSSTSTAYMELSSLRSEDTAMYYCARDGNYYDSRGYYYDTFDMWGQGTLVTVSS VL: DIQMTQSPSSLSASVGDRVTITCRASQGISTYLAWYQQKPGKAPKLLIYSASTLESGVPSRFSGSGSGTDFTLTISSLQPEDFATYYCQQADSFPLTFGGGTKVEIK | 1.19 |

Q. Please give the measured Index 2 (Relative Migration relative to VH0/Vk0), HUVEC migration assay for this binder: VH5/Vk0 (antibody, IgG1, V domains shown, Full IgG1/kappa expressed in HEK 293 EBNA cells) VH: QVQLVQSGAEVKKPGSSVKVSCQGSGYSFPTHWITWVRQAPGQGLEWMGTIDPTDSYNFYGPSFQGRVTITADSSTSTAYMELSSLRSEDTAVYYCARDGNYYDSRGYYYDTFDMWGQGTLVTVSS VL: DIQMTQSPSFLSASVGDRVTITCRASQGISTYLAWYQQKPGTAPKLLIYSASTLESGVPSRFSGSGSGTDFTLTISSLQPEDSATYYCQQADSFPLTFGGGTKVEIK
A. 0.855

Q. Please give the measured Index 2 (Relative Migration relative to VH0/Vk0), HUVEC migration assay for this binder: VH6/Vk2 (antibody, IgG1, V domains shown, Full IgG1/kappa expressed in HEK 293 EBNA cells) VH: QVQLVQSGAEVKKPGSSVKVSCKASGYSFPTHWITWVRQAPGQGLEWMGTIDPTDSYNFYGPSFQGRVTITADKSTSTAYMELSSLRSEDTAVYYCARDGNYYDSRGYYYDTFDMWGQGTLVTVSS VL: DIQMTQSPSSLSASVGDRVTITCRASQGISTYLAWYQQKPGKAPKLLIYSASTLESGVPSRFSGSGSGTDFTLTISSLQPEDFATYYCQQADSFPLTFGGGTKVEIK
A. 1.03

Reference source for all entries: patent US20210403576A1
